Each recorded value in this set is attributed to patent US9096646B2.

Listed here: items and their measured IC50.
Target: CXCR4 (Homo sapiens)
Sequence (P61073 whole entry): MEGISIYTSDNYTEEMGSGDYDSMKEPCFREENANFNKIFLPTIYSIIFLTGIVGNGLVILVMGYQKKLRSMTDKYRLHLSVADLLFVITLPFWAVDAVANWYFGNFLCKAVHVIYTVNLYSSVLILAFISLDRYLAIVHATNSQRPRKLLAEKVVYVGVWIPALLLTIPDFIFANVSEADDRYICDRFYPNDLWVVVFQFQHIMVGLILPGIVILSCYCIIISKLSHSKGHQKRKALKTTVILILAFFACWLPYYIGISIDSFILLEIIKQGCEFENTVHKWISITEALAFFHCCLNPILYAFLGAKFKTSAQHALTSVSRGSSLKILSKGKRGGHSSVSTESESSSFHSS
Assay: Calcium flux assay in CCRF-CEM cells (SDF-1α activation of CXCR4; intrinsic agonist activity)
Assay type: cell-based
Design: a human T-cell ALL line that endogenously expresses CXCR4; endogenous in cells; host or cells: CCRF-CEM (human T-cell ALL line)
Settings: SDF-1α activation of CXCR4, Calcium-4 dye, read-out: IC50 (nM), CXCR4 i1 loop compound Calcium Flux Data
Excerpt: Calcium Flux Assay is one of the most popular cell-based GPCR functional assays. It most often uses calcium sensing fluorescent dyes such as fura2 AM, fluo-4 and Calcium-4 to measure changes in intracellular calcium concentration. It is used mainly to detect GPCR signaling via Gaq subunit. […] Intracellular calcium binding to the fluorescent dyes can be detected by instruments that quantify fluorescent intensities, such as FLIPR Tetra, Flexstation (MDS) and FDSS (Hamamatsu). […]
Square brackets hold non-standard residues; d marks the D form. Peptide text beside a SMILES is read from it. * marks the point of attachment. ξ: configuration not given here. Palmitoyl = CCCCCCCCCCCCCCCC(=O)*; ξF = NC(Cc1ccccc1)C(=O)O

// recorded IC50 for CCCCCCCCCCCCCCCC(=O)N[C@@H](CCSC)C(=O)NCC(=O)N[C@@H](Cc1ccc(O)cc1)C(=O)N[C@@H](CCC(N)=O)C(=O)N[C@@H](CCCCN)C(=O)N[C@@H](CCCCN)C(=O)N[C@@H](CC(C)C)C(=O)N[C@@H](CCCNC(=N)N)C(=O)N[C@@H](CO)C(=O)N[C@@H](CCSC)C(=O)N[C@H](C(=O)N[C@@H](CC(=O)O)C(=O)N[C@@H](CCCCN)C(=O)N[C@@H](Cc1ccc(O)cc1)C(=O)N[C@@H](CCCNC(=N)N)C(=O)N[C@H](CC(C)C)C(N)=O)[C@@H](C)O [Compound 159] (Palmitoyl-MGYQKKLRSMTDKYR[dL]-NH2) : > 10000 nM

// recorded IC50 for CCCCCCCCCCCCCCCC(=O)N[C@@H](CCSC)C(=O)NCC(=O)N[C@@H](Cc1ccc(O)cc1)C(=O)N[C@@H](CCC(N)=O)C(=O)N[C@@H](CCCCN)C(=O)N[C@@H](CCCCN)C(=O)N[C@@H](CC(C)C)C(=O)N[C@H](CCCNC(=N)N)C(=O)N[C@@H](CO)C(=O)N[C@@H](CCSC)C(=O)N[C@H](C(=O)N[C@@H](CC(=O)O)C(=O)N[C@@H](CCCCN)C(=O)N[C@@H](Cc1ccc(O)cc1)C(=O)N[C@@H](CCCNC(=N)N)C(=O)N[C@@H](CC(C)C)C(N)=O)[C@@H](C)O [Compound 171] (Palmitoyl-MGYQKKL[dR]SMTDKYRL-NH2) : 72 nM

// recorded IC50 for CCCCCCCCCCCCCCCC(=O)N[C@@H](CCSC)C(=O)NCC(=O)N[C@@H](Cc1ccc(O)cc1)C(=O)N[C@@H](CCC(N)=O)C(=O)N[C@H](CCCCN)C(=O)N[C@@H](CCCCN)C(=O)N[C@@H](CC(C)C)C(=O)N[C@@H](CCCNC(=N)N)C(=O)N[C@@H](CO)C(=O)N[C@@H](CCSC)C(=O)N[C@H](C(=O)N[C@@H](CC(=O)O)C(=O)N[C@@H](CCCCN)C(=O)NC(Cc1ccccc1)C(=O)N[C@@H](CCCNC(=N)N)C(=O)N[C@@H](C)C(N)=O)[C@@H](C)O (stereo partly drawn) [Compound 153] (Palmitoyl-MGYQ[dK]KLRSMTDK[ξF]RA-NH2) : > 10000 nM
